Values from patent US20210380703A1

Target: Human Fc (human)
Experiment: ELISA, negative control
Value Type: optical density (OD)
Give a bare numeral; the unit OD is implied.

Field: example entries. Status: answers known.
368_A05 (antibody, V domains shown) VH: EVQLLESGGGLVQPGGSLRLSCAASGFTFSSYSMNWVRQAPGKGLEWVAGINYNSGYTGYADSVKGRFTISRDNSKNTLYLQMNSLRAEDTAVYYCARSANWHDTALDYWGQGTLVTVSS VL: DIQMTQSPSSLSASVGDRVTITCRASQSIVSYLNWYQQKPGKAPKLVIYAATSRASGVPSRFSGSGSGTDFTLTISSLQPEDFATYYCQQSYDSPLTFGGGTKVEIK
0.285
373_A08 (antibody, V domains shown) VH: EVQLLESGGGLVQPGGSLRLSCAASGFTFDSYGMNWVRQAPGKGLEWVSNINYNGGYTGYADSVKGRFTISRDNSKNTLYLQMNSLRAEDTAVYYCARSANWHDTALDYWGQGTLVTVSS VL: DIQMTQSPSSLSASVGDRVTITCRASQSIVSYVNWYQQKPGKAPKLLIYAATSLASGVPSRFSGSGSGTDFTLTISSLQPEDFATYYCQQSYSLPLTFGGGTKVEIK
0.195

Lookup: # input binder: 368_E04 (antibody, V domains shown) VH: EVQLLESGGGLVQPGGSLRLSCAASGFTFSSYSMNWVRQAPGKGLEWVANINYNSGYTGYADSVKGRFTISRDNSKNTLYLQMNSLRAEDTAVYYCARSANWHDTALDYWGQGTLVTVSS VL: DIQMTQSPSSLSASVGDRVTITCRASQSILSYVNWYQQKPGKAPKLLIYAATSRHSGVPSRFSGSGSGTDFTLTISSLQPEDFATYYCQQSYDNPLTFGGGTKVEIK ; wanted: its optical density
Found: 0.32

Lookup: What would you report for 370_F07 (antibody, V domains shown) VH: EVQLLESGGGLVQPGGSLRLSCAASGFTFDSYSMNWVRQAPGKGLEWVSNINYNGGYKGYADSVKGRFTISRDNSKNTLYLQMNSLRAEDTAVYYCARSANWHDTALDYWGQGTLVTVSS VL: DIQMTQSPSSLSASVGDRVTITCRASQSILSYLNWYQQKPGKAPKLLIYAATSRASGVPSRFSGSGSGTDFTLTISSLQPEDFATYYCQQSYNLPLTFGGGTKVEIK ?
Found: 0.384

Lookup: Same again, this time with 369_E02 (antibody, V domains shown) VH: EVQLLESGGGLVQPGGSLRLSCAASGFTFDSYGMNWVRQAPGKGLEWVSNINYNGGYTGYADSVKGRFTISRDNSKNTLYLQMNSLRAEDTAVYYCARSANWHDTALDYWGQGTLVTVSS VL: DIQMTQSPSSLSASVGDRVTITCRASQSIVSYVNWYQQKPGKAPKLLIYATTSRHSGVPSRFSGSGSGTDFTLTISSLQPEDFATYYCQQSYDNPLTFGGGTKVEIK
Found: 0.365
